Biological target: PxpR (Corynebacterium glutamicum)
Sequence (Q8NRP0 11-227): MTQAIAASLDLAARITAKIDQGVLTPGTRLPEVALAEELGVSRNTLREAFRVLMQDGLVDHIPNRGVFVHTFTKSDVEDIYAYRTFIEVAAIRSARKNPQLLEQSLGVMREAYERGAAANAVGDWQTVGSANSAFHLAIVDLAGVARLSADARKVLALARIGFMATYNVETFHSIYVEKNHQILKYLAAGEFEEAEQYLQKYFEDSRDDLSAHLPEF
READOUT_NAME: Kd (nM)

INSERT INTO results (structure_as_smiles, recorded_value) VALUES
  ('O=C1CC[C@@H](C(=O)O)N1', 726);
